So I've got a bunch of molecules here, and I need their refractive index values.
Experiment: refractive index (Na D-line) (dimensionless)
Conditions: 318.15 K; 101.33 kPa; Liquid; Standard Abbe refractometry
± gives the expanded uncertainty stated by the source.

Example entries and their recorded answers appear below.
>  <Molecule>
CCCCCCCC[n+]1ccn(C)c1.[Cl-] [1-methyl-3-octylimidazolium chloride]

>  <Experimental value>
1.5054 ± 0.001

$$$$
>  <Molecule>
CCn1cc[n+](C)c1.COS(=O)(=O)[O-] [1-ethyl-3-methylimidazolium methylsulfate]

>  <Experimental value>
1.4716 ± 0.0009

$$$$
>  <Molecule>
CC(C)C[P+](C)(CC(C)C)CC(C)C.Cc1ccc(S(=O)(=O)[O-])cc1 [triisobutylmethylphosphonium p-toluenesulfonate]

>  <Experimental value>
1.5151 ± 0.0013

$$$$
>  <Molecule>
CCCC[n+]1ccc(C)cc1.F[B-](F)(F)F [1-butyl-4-methylpyridinium tetrafluoroborate]

>  <Experimental value>
1.4482 ± 0.001

$$$$
>  <Molecule>
CCCCCCn1cc[n+](C)c1.F[P-](F)(F)(F)(F)F [1-hexyl-3-methylimidazolium hexafluorophosphate]

>  <Experimental value>
1.4115 ± 0.001

$$$$
>  <Molecule>
CCCCn1cc[n+](C)c1.F[P-](F)(F)(F)(F)F [1-butyl-3-methylimidazolium hexafluorophosphate]

>  <Experimental value>
1.4068 ± 0.001

$$$$
>  <Molecule>
CCCCn1cc[n+](C)c1.O=S(=O)([O-])O [1-butyl-3-methylimidazolium hydrogen sulfate]

>  <Experimental value>
1.4857 ± 0.0013

$$$$
>  <Molecule>
COS(=O)(=O)[O-].Cn1cc[n+](C)c1 [1,3-dimethylimidazolium methylsulfate]

>  <Experimental value>
1.4792 ± 0.001

$$$$

Consider now this further molecule.
Prompt: Dear colleague, I am looking for the recorded refractive index of the following molecule: CCCCCCCC[n+]1ccn(C)c1.F[P-](F)(F)(F)(F)F [1-octyl-3-methylimidazolium hexafluorophosphate]
Response: 1.4195 ± 0.0013

----------
Details: 313.15 K; 101.33 kPa; Liquid; Pulse-echo method
Measurement label: speed of sound (m/s)
Numbers only, in m/s.

>  <Molecule>
CCCC[n+]1ccc(C)cc1.F[B-](F)(F)F [1-butyl-4-methylpyridinium tetrafluoroborate]

>  <speed of sound (m/s)>
1565.2

$$$$
>  <Molecule>
CC(C)C[P+](C)(CC(C)C)CC(C)C.Cc1ccc(S(=O)(=O)[O-])cc1 [triisobutylmethylphosphonium p-toluenesulfonate]

>  <speed of sound (m/s)>
1567.6

$$$$
>  <Molecule>
CCCCCCCC[n+]1ccn(C)c1.F[P-](F)(F)(F)(F)F [1-octyl-3-methylimidazolium hexafluorophosphate]

>  <speed of sound (m/s)>
1363.6

$$$$
>  <Molecule>
CCCCn1cc[n+](C)c1.O=S(=O)([O-])O [1-butyl-3-methylimidazolium hydrogen sulfate]

>  <speed of sound (m/s)>
1652.1

$$$$

Please give speed of sound for each item listed below.
1. COS(=O)(=O)[O-].Cn1cc[n+](C)c1 [1,3-dimethylimidazolium methylsulfate]
2. CCCCCCn1cc[n+](C)c1.F[P-](F)(F)(F)(F)F [1-hexyl-3-methylimidazolium hexafluorophosphate]
3. CCn1cc[n+](C)c1.COS(=O)(=O)[O-] [1-ethyl-3-methylimidazolium methylsulfate]
4. CCCCCCCC[n+]1ccn(C)c1.[Cl-] [1-methyl-3-octylimidazolium chloride]
5. CCCCn1cc[n+](C)c1.F[P-](F)(F)(F)(F)F [1-butyl-3-methylimidazolium hexafluorophosphate]

Response:
[1775.4, 1386.7, 1727, 1619.6, 1408.3]

----------
Assay: refractive index (Na D-line) (dimensionless)
Settings: 328.15 K; 101.33 kPa; Liquid; Standard Abbe refractometry
Measurement label: refractive index
Answers are plain numbers.

Example entries and their recorded answers appear below.
>  <Compound>
COS(=O)(=O)[O-].Cn1cc[n+](C)c1 [1,3-dimethylimidazolium methylsulfate]

>  <refractive index>
1.4779

$$$$
>  <Compound>
CCCC[n+]1ccc(C)cc1.F[B-](F)(F)F [1-butyl-4-methylpyridinium tetrafluoroborate]

>  <refractive index>
1.4469

$$$$
>  <Compound>
CCCCCCn1cc[n+](C)c1.F[P-](F)(F)(F)(F)F [1-hexyl-3-methylimidazolium hexafluorophosphate]

>  <refractive index>
1.4088

$$$$
>  <Compound>
CCCCn1cc[n+](C)c1.O=S(=O)([O-])O [1-butyl-3-methylimidazolium hydrogen sulfate]

>  <refractive index>
1.4762

$$$$
>  <Compound>
CCn1cc[n+](C)c1.COS(=O)(=O)[O-] [1-ethyl-3-methylimidazolium methylsulfate]

>  <refractive index>
1.4702

$$$$

Please give refractive index for each item listed below.
1. CC(C)C[P+](C)(CC(C)C)CC(C)C.Cc1ccc(S(=O)(=O)[O-])cc1 [triisobutylmethylphosphonium p-toluenesulfonate]
2. CCCCn1cc[n+](C)c1.F[P-](F)(F)(F)(F)F [1-butyl-3-methylimidazolium hexafluorophosphate]
3. CCCCCCCC[n+]1ccn(C)c1.F[P-](F)(F)(F)(F)F [1-octyl-3-methylimidazolium hexafluorophosphate]

Response:
[1.5123, 1.4053, 1.4177]

Prompt: Dear colleague, I am looking for the recorded refractive index of the following compound: CCCCCCCC[n+]1ccn(C)c1.[Cl-] [1-methyl-3-octylimidazolium chloride]
Response: 1.5037

----------
Conditions: 318.15 K; 101.33 kPa; Liquid; Vibrating tube method
So I've got a bunch of compounds here, and I need their mass density values.
Answers are plain numbers, in kg/m3.

Example entries and their recorded answers appear below.
>  <Compound>
CCCCn1cc[n+](C)c1.F[P-](F)(F)(F)(F)F [1-butyl-3-methylimidazolium hexafluorophosphate]

>  <mass density [kg/m3]>
1351

$$$$
>  <Compound>
COS(=O)(=O)[O-].Cn1cc[n+](C)c1 [1,3-dimethylimidazolium methylsulfate]

>  <mass density [kg/m3]>
1312

$$$$
>  <Compound>
CCCCCCn1cc[n+](C)c1.F[P-](F)(F)(F)(F)F [1-hexyl-3-methylimidazolium hexafluorophosphate]

>  <mass density [kg/m3]>
1276

$$$$
>  <Compound>
CCn1cc[n+](C)c1.COS(=O)(=O)[O-] [1-ethyl-3-methylimidazolium methylsulfate]

>  <mass density [kg/m3]>
1279

$$$$
>  <Compound>
CCCCCCCC[n+]1ccn(C)c1.[Cl-] [1-methyl-3-octylimidazolium chloride]

>  <mass density [kg/m3]>
998

$$$$

Please give mass density for each item listed below.
1. CCCCCCCC[n+]1ccn(C)c1.F[P-](F)(F)(F)(F)F [1-octyl-3-methylimidazolium hexafluorophosphate]
2. CC(C)C[P+](C)(CC(C)C)CC(C)C.Cc1ccc(S(=O)(=O)[O-])cc1 [triisobutylmethylphosphonium p-toluenesulfonate]
3. CCCC[n+]1ccc(C)cc1.F[B-](F)(F)F [1-butyl-4-methylpyridinium tetrafluoroborate]
4. CCCCn1cc[n+](C)c1.O=S(=O)([O-])O [1-butyl-3-methylimidazolium hydrogen sulfate]

Response:
[1219, 1056, 1176, 1211]

----------
Details: 318.15 K, Ring tensiometer
Everything with surface tension liquid-gas lower than 40 mN/m is condition not met; everything else, including exactly 40 mN/m, is condition met.

Take a look at these entries with their results.
>  <Compound>
CCCCCCCC[n+]1ccn(C)c1.F[P-](F)(F)(F)(F)F [1-octyl-3-methylimidazolium hexafluorophosphate]

>  <Class label>
condition not met

$$$$
>  <Compound>
CC(C)C[P+](C)(CC(C)C)CC(C)C.Cc1ccc(S(=O)(=O)[O-])cc1 [triisobutylmethylphosphonium p-toluenesulfonate]

>  <Class label>
condition not met

$$$$
>  <Compound>
CCCCCCn1cc[n+](C)c1.F[P-](F)(F)(F)(F)F [1-hexyl-3-methylimidazolium hexafluorophosphate]

>  <Class label>
condition not met

$$$$
>  <Compound>
CCCC[n+]1ccc(C)cc1.F[B-](F)(F)F [1-butyl-4-methylpyridinium tetrafluoroborate]

>  <Class label>
condition met

$$$$

We now examine a further compound.
Prompt: Given the entry CCCCn1cc[n+](C)c1.O=S(=O)([O-])O [1-butyl-3-methylimidazolium hydrogen sulfate] , answer whether its surface tension liquid-gas meets or surpasses 40 mN/m.
Response: condition met

----------
Settings: 328.15 K; 101.33 kPa; Liquid; Pulse-echo method
So I've got a bunch of molecules here, and I need their speed of sound values.
Answers are plain numbers, in m/s.

>  <Molecule>
COS(=O)(=O)[O-].Cn1cc[n+](C)c1 [1,3-dimethylimidazolium methylsulfate]

>  <speed of sound, m/s>
1740.3

$$$$
>  <Molecule>
CCCCCCCC[n+]1ccn(C)c1.F[P-](F)(F)(F)(F)F [1-octyl-3-methylimidazolium hexafluorophosphate]

>  <speed of sound, m/s>
1327

$$$$
>  <Molecule>
CCCCCCCC[n+]1ccn(C)c1.[Cl-] [1-methyl-3-octylimidazolium chloride]

>  <speed of sound, m/s>
1559.6

$$$$

Please give speed of sound for each item listed below.
1. CC(C)C[P+](C)(CC(C)C)CC(C)C.Cc1ccc(S(=O)(=O)[O-])cc1 [triisobutylmethylphosphonium p-toluenesulfonate]
2. CCCC[n+]1ccc(C)cc1.F[B-](F)(F)F [1-butyl-4-methylpyridinium tetrafluoroborate]
3. CCCCCCn1cc[n+](C)c1.F[P-](F)(F)(F)(F)F [1-hexyl-3-methylimidazolium hexafluorophosphate]
4. CCCCn1cc[n+](C)c1.F[P-](F)(F)(F)(F)F [1-butyl-3-methylimidazolium hexafluorophosphate]
5. CCCCn1cc[n+](C)c1.O=S(=O)([O-])O [1-butyl-3-methylimidazolium hydrogen sulfate]
6. CCn1cc[n+](C)c1.COS(=O)(=O)[O-] [1-ethyl-3-methylimidazolium methylsulfate]

Response:
[1521.5, 1529.6, 1352.1, 1374.7, 1615.5, 1692.6]

Where these numbers come from: the NIST ThermoML archive (doi:10.1021/je500093z)
